- ASSAY_COMMENT: Half life in rat at 2 mg/kg, iv by LC/MS method
- Assay type: ADME, organism-based
- EXPERIMENTAL_PARAMETERS: in vivo
MEASURED_ATTRIBUTE: half-life (h)
Numbers only here, please. The scale is h.

Give half-life for the following molecule: CCc1ccc([C@@H]2Oc3cc(-c4cnc([C@@H]5CCCN5C(=O)[C@@H](NC(=O)OC)C(C)C)[nH]4)cc(F)c3-c3cc4cc(-c5cnc([C@@H]6CCCN6C(=O)[C@@H](NC(=O)OC)C(C)C)[nH]5)ccc4n32)s1
6.4

Give half-life for the following molecule: COC(=O)N[C@H](C(=O)N1CCC[C@H]1c1ncc(-c2cc(F)c3c(c2)OC(c2cnc(C4CC4)s2)n2c-3cc3cc(-c4cnc([C@@H]5C[C@H]6C[C@H]6N5C(=O)[C@@H](NC(=O)OC)C(C)C)[nH]4)ccc32)[nH]1)C(C)C (stereo not given in full)
3.9

Give half-life for the following molecule: COC(=O)N[C@H](C(=O)N1CCC[C@H]1c1ncc(-c2cc(F)c3c(c2)O[C@@H](c2cnc(C4CC4)s2)n2c-3cc3cc(-c4cnc([C@@H]5CCCN5C(=O)[C@@H](NC(=O)OC)C(C)C)[nH]4)ccc32)[nH]1)C(C)C
4.7

Give half-life for the following molecule: COC(=O)N[C@H](C(=O)N1CCC[C@H]1c1ncc(-c2cc(F)c3c(c2)OC(c2ccc(C4CC4)s2)n2c-3cc3cc(-c4cnc([C@@H]5CCCN5C(=O)[C@@H](NC(=O)OC)C(C)C)[nH]4)ccc32)[nH]1)C(C)C (stereo not given in full)
7

Give half-life for the following molecule: CCCc1ncc(C2Oc3cc(-c4cnc([C@@H]5CCCN5C(=O)[C@@H](NC(=O)OC)C(C)C)[nH]4)cc(F)c3-c3cc4cc(-c5cnc([C@@H]6CCCN6C(=O)[C@@H](NC(=O)OC)C(C)C)[nH]5)ccc4n32)s1 (stereo not given in full)
4.3

# credit: ChEMBL document CHEMBL3877294
